Biological target: 72 kDa type IV collagenase (Homo sapiens)
Assay: MMP-2 inhibition counter-screen for RPN11 hits, SAR follow-up, counter-screen for RPN11 inhibitor project, biochemical, fluorescence (AID 686932)
Details: recombinant MMP-2, FRET peptide cleavage fluorescence
The source made the active and inactive calls.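 How the source made its calls: active means IC50 against MMP-2 at or below 100 µM; inactive means the rest.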
Respond with a class label; see t (active), f (inactive)

[
  {
    "Structure smiles string": "Cc1ccc(C(=O)Sc2cccc3cccnc23)cc1",
    "Cat": "f"
  },
  {
    "Structure smiles string": "COC(=O)[C@H](C)NC(=O)c1ccnc2c(SSc3cccc4c(C(=O)N[C@@H](C)C(=O)OC)ccnc34)cccc12",
    "Cat": "f"
  },
  {
    "Structure smiles string": "COC(=O)[C@@H](NC(=O)c1cnc2c(SSc3cccc4cc(C(=O)N[C@H](C(=O)OC)C(C)C)cnc34)cccc2c1)C(C)C",
    "Cat": "f"
  }
]

Fill in: this test's call for CC(C)[C@H](NC(=O)c1cnc2c(SSc3cccc4cc(C(=O)N[C@H](C(=O)O)C(C)C)cnc34)cccc2c1)C(=O)O is ___
f
